assay.overview: Pharmacokinetic study, 4ET-03-009 at 10 mg/kg oral
Assay type: in vivo, CD-1 male mice
experimental.parameters: male, CD-1, mouse, plasma, po, 10 mg/kg, individual animals, read-out: Cmax
measured.metric: Cmax (ng/mL)
# value in ng/mL; strip the unit string

Can you look up the measured Cmax of Cc1cc(Nc2cc(NC(=O)C3CC3)ncn2)c(=O)n2c1C(=O)NC21CCOCC1 [Compound 4ET-03-009] for me?
331

* * *

assay.overview: Pharmacokinetic study, 4ET-03-009 at 20 mg/kg oral
Type: in vivo, CD-1 male mice
experimental.parameters: male, CD-1, mouse, plasma, oral, 20 mg/kg, 8 hours, read-out: Plasma Conc. (per mouse n = 3)
measured.metric: concentration at 8 hours (ng/mL)
# value in ng/mL; strip the unit string

Can you look up the measured concentration at 8 hours of Cc1cc(Nc2cc(NC(=O)C3CC3)ncn2)c(=O)n2c1C(=O)NC21CCOCC1 [Compound 4ET-03-009] for me?
57.6
